// provenance: paper PMC2990756

system name: JMJD2E (KDM4E) (Homo sapiens, UniProt B2RXH2)
Construct: The catalytic domain of human JMJD2E (residues 1–337); His6 (N); made in house; host or cells: E. coli
Sequence (B2RXH2 1-337): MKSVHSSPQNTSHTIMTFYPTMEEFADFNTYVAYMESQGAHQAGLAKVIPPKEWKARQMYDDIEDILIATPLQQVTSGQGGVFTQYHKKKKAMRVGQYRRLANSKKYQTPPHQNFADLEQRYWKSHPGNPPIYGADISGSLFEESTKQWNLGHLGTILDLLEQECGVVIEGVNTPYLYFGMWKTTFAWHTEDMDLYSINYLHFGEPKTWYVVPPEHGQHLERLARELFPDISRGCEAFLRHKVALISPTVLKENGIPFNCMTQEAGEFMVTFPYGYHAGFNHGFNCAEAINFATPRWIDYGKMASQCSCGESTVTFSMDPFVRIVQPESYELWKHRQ
method description: qHTS fluorescence FDH-coupled JMJD2E demethylase assay
Assay type: biochemical
test conditions: Table S1; unit not in table, from Figure 2; read-out: qHTS Data: jmjd2e IC50
test readout: log10 IC50 (log10 of the value in µM)

[
  {
    "molecule": "Oc1ccc(CN2CCCc3ccccc32)c2cccnc12",
    "log10 IC50": 0.95
  },
  {
    "molecule": "COc1cccc(/C=N/NC(=O)CNC(=O)COc2cccc(C)c2)c1O",
    "log10 IC50": 0.45
  },
  {
    "molecule": "O=C(NO)c1ccccc1O",
    "log10 IC50": 1.00
  },
  {
    "molecule": "CCOC(=O)c1ccc(CC(=O)c2ccc(O)c(O)c2O)o1",
    "log10 IC50": 0.50
  },
  {
    "molecule": "CCCCc1ccc(C(=O)O)nc1",
    "log10 IC50": 0.60
  },
  {
    "molecule": "O=C(O)c1cccnc1C(=O)O",
    "log10 IC50": 0.25
  },
  {
    "molecule": "COc1ccc(/C=C/C(=O)NC(=S)NNC(=O)c2cnccn2)cc1",
    "log10 IC50": 0.90
  },
  {
    "molecule": "CNCCc1ccc(O)c(O)c1.Cl",
    "log10 IC50": 1.15
  },
  {
    "molecule": "O=C(OC1Cc2c(O)cc(O)cc2OC1c1cc(O)c(O)c(O)c1)c1cc(O)c(O)c(O)c1 (stereo not shown)",
    "log10 IC50": 0.40
  },
  {
    "molecule": "O=c1cc(-c2ccccc2)oc2cc(O)c(O)c(O)c12",
    "log10 IC50": -0.05
  },
  {
    "molecule": "CCOc1cccc(C(=O)c2ccc(O)c(O)c2O)c1",
    "log10 IC50": 1.00
  },
  {
    "molecule": "O=c1c(O)c(Br)ccc2c(Br)c(O)c(O)c(O)c12",
    "log10 IC50": 0.85
  },
  {
    "molecule": "O=C1CC(Sc2ncn[nH]2)C(=O)N1c1ccccc1 (stereo not shown)",
    "log10 IC50": 0.35
  },
  {
    "molecule": "c1cnc2c(c1)ccc1cccnc12",
    "log10 IC50": -0.60
  },
  {
    "molecule": "C/C(=N\\Nc1ccc2nncn2n1)c1ccccn1",
    "log10 IC50": 1.00
  },
  {
    "molecule": "COc1ccc(-n2c(C)cc(/C=N/Nc3nnc(C)n3N)c2C)cc1.Cl",
    "log10 IC50": -0.15
  },
  {
    "molecule": "O=C(CSc1ncn[nH]1)c1cccc([N+](=O)[O-])c1",
    "log10 IC50": 0.90
  },
  {
    "molecule": "CN(C)S(=O)(=O)c1cccc(-n2sc3ccccc3c2=O)c1",
    "log10 IC50": 0.55
  },
  {
    "molecule": "CCN(CC)c1ccc(N=Cc2c(C)[nH]c3ccccc23)cc1",
    "log10 IC50": -0.10
  }
]
